# Tested system: Dual specificity protein kinase CLK3 (Homo sapiens) (UniProt P49761)
# Sequence (P49761 whole entry, looked up): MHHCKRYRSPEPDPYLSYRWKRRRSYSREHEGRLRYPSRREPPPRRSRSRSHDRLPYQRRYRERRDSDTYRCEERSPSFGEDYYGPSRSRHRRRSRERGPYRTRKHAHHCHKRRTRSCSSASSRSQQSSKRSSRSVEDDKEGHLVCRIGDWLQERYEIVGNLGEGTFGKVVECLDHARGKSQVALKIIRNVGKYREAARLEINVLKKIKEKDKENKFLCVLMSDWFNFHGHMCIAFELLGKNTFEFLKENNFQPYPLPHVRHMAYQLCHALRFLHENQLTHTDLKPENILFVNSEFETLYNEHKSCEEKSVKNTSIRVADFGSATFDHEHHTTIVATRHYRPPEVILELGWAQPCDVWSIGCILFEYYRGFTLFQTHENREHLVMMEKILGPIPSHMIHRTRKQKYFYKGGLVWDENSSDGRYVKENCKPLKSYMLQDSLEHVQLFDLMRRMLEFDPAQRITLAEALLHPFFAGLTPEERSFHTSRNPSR
# Settings: at 0.1 µM
# Description: GSK_PKIS: CLK3 mean inhibition at 0.1 uM [Nanosyn]
// values below are reported inhibition

In [3]: df
Out[3]:
                           molecular_string    endpoint  result
0   COc1cc(C=NNc2ncnc3c2cnn3Cc2ccccc2)ccc1O  inhibition   0.25%
1  NC(=O)c1sc(-n2cnc3cc(C(F)(F)F)ccc32)cc1OCc1ccccc1Br  inhibition  -0.27%
2            Nc1nonc1-c1nc2cnccc2n1C1CCCCC1  inhibition   -0.8%
3  NS(=O)(=O)c1ccc(N/C=C2\C(=O)Nc3ccc4ncsc4c32)cc1  inhibition   1.81%
4  CCn1c(-c2nonc2N)nc2c(C#CC(C)(C)O)nc(O[C@@H](CN)c3ccccc3)cc21  inhibition  -1.43%
5  COc1cc2c(cc1Nc1nc(Nc3ccsc3C(N)=O)c3cc[nH]c3n1)N(C(=O)CN(C)C)CCC2  inhibition   1.22%

Below: the item to evaluate.
May I ask what inhibition has been recorded for `NS(=O)(=O)c1ccc(-c2ccc3c(NC(=O)C4CC4)n[nH]c3c2)cc1` ?
0.84%

Just for reference, ChEMBL document CHEMBL1961873 is where these values come from.
